compounds and their reported EC50
# studySystem: human GPR40 (Homo sapiens, UniProt O14842)
# Sequence (O14842 whole entry): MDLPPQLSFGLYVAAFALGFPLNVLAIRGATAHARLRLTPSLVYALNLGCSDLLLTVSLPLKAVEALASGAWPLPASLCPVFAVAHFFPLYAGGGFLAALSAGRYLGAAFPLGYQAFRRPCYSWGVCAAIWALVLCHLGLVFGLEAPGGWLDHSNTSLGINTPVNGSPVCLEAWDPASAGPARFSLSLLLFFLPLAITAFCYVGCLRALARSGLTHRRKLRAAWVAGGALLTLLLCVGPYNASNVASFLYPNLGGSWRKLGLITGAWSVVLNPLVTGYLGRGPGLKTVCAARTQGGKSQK
# assayExplanation: Induction of Ca2+ (calcium flux assay) using human GPR40 expression cell line
# experimentalConditions: read-out: EC0.5
State just the number; it will be interpreted in nM.

CC#C[C@@H](CC(=O)O)c1ccc(OCc2ccc3c(CN4CCCC(F)(F)C4)cn(CC(C)C)c3n2)cc1: 12

Which value of EC50 has been reported for CCC(CC(=O)O)c1ccc(OCc2ccc3c(cnn3Cc3ccccc3)c2)cc1 (centres unmarked) in the records?
100

And what about the compound CC#C[C@@H](CC(=O)O)c1ccc(OCc2cccc3c2ccn3Cc2ccccc2)cc1 ?
30

What would you report for CC(C)n1ccc2ccc(CNc3ccc(CCC(=O)O)cc3)cc21 ?
100

And then O=C(O)CC1CCOc2cc(OCc3ccc4c(cnn4CC4CCCCC4)c3)ccc21 (centres unmarked) , what is it?
300

Another compound to look at: CC#C[C@@H](CC(=O)O)c1ccc(OCc2ccc3c(COC)nn(CC(C)C)c3c2C)cc1
5

Input Cc1c(COc2ccc(CCC(=O)O)cc2)ccc2ccn(-c3ccsc3)c12
20

Next: O=C(O)CC1CCc2cc(OCc3ccc4c(cnn4Cc4ccccc4)c3)ccc21 (centres unmarked)
200

Queued: CC#C[C@@H](CC(=O)O)c1ccc(OCc2ccc3c(CN4CC[C@H](F)C4)nn(CC(C)C)c3c2C)cc1
35
